// provenance: PubChem BioAssay (NCI)

Provide the recorded TGI for the entries that follow.
# Tested on: CAKI-1 renal
# Test summary: NCI tumour cell line growth inhibition, 48 h

Q: Item CC(C)C12CCC3(CCC4C(C)(C(=O)O)CCCC4(C)C3C1)C(CN)C2 (stereo unspecified) has what recorded TGI?
Result: > 100 µM

Q: Item Nn1c(=S)[nH]nc(/C=C/c2c(O)ccc3ccccc23)c1=O has what recorded TGI?
Result: 36.1 µM

Q: Item Nc1nc(N)c2ncn(Cc3ccccc3)c2n1 has what recorded TGI?
Result: > 100 µM

Q: Item CCCSC1=N/C(=C\c2ccco2)C(=O)N1 has what recorded TGI?
Result: > 100 µM

Q: Item COc1cc2c(cc1OCCCN1CCN(CCCn3c4ccccc4c4ccccc43)CC1)N=C[C@@H]1CCCN1C2=O has what recorded TGI?
Result: 1.17 µM

Q: Item COc1ccc(/[N+]([O-])=C/c2ccccc2OC(=S)S)cc1 has what recorded TGI?
Result: > 100 µM

Q: Item NS(=O)(=O)C1CCCCC1C(=O)NNC(=O)C(=O)Nc1nc(=S)[nH][nH]1 (stereo unspecified) has what recorded TGI?
Result: > 100 µM

Q: Item CCOC(=O)c1c(/C=N\Nc2ccccc2)nc2ccccc2c1-c1ccccc1 has what recorded TGI?
Result: > 100 µM

Q: Item N/N=C(\N)SCc1ccc(N=C=S)cc1 has what recorded TGI?
Result: > 100 µM

Q: Item CN1OC(CO)CC12C1CC3CC(C1)CC2C3 (stereo unspecified) has what recorded TGI?
Result: > 100 µM

Q: Item COc1ccc(OC)c2c(Nc3ccc(S(=O)(=O)O)c4cc(S(=O)(=O)O)cc(S(=O)(=O)O)c34)cc(C)nc12 has what recorded TGI?
Result: > 100 µM

###

# Tested on: HCC-2998 colon
# Test summary: NCI tumour cell line growth inhibition, 48 h
Measured parameter: TGI

Q: Fill in the recorded TGI for this compound, with HCC-2998 colon as test system: CCCCCCCCCCCCCCCC(=O)NCC(OCC)OCC
Result: > 100 µM

Q: Fill in the recorded TGI for this compound, with HCC-2998 colon as test system: CCc1n[nH]c(=O)n1-c1ccncc1
Result: > 100 µM

Q: Fill in the recorded TGI for this compound, with HCC-2998 colon as test system: Cc1ccc(C)c(C(=O)CC2OC(O)C(Cl)C2Cl)c1 (stereo not drawn)
Result: > 100 µM

Q: Fill in the recorded TGI for this compound, with HCC-2998 colon as test system: O=C(c1ccccc1)n1c2ccc(Br)cc2c2nc3ccccc3nc21
Result: > 100 µM

Q: Fill in the recorded TGI for this compound, with HCC-2998 colon as test system: O=[N+]([O-])c1cccc(C2=NOC3CCCC23)c1 (stereo not drawn)
Result: > 100 µM

Q: Fill in the recorded TGI for this compound, with HCC-2998 colon as test system: O=NNc1nc(-c2ccccn2)nc2ccccc12
Result: 41 µM

Q: Fill in the recorded TGI for this compound, with HCC-2998 colon as test system: O=C(/C=C/c1ccc(OCC(=O)N2CCN(c3ccccc3)CC2)cc1)c1ccccc1
Result: > 72.4 µM

Q: Fill in the recorded TGI for this compound, with HCC-2998 colon as test system: Cc1cc2c(SCc3ccccc3Cl)nc(N)nc2nc1C
Result: > 100 µM

Q: Fill in the recorded TGI for this compound, with HCC-2998 colon as test system: COc1cc2c(cc1OCCCN1CCN(CCCn3c4ccccc4c4ccccc43)CC1)N=C[C@@H]1CCCN1C2=O
Result: 0.37 µM

Q: Fill in the recorded TGI for this compound, with HCC-2998 colon as test system: Cn1c(=O)c2c(n(C)c1=O)n1c(=O)c3ccccc3nc1n2C
Result: > 100 µM

Q: Fill in the recorded TGI for this compound, with HCC-2998 colon as test system: CO/C(N)=C(\C#N)N=Cc1cccs1
Result: > 100 µM

Q: Fill in the recorded TGI for this compound, with HCC-2998 colon as test system: Nc1nc2c(ccc3ccccc32)[nH]1
Result: > 10 µM

Q: Fill in the recorded TGI for this compound, with HCC-2998 colon as test system: Nc1nc(N)c2ncn(Cc3ccccc3)c2n1
Result: > 100 µM

Q: Fill in the recorded TGI for this compound, with HCC-2998 colon as test system: O=C1Cc2c([nH]c3c(Br)cccc23)-c2ccccc2N1
Result: > 100 µM

Q: Fill in the recorded TGI for this compound, with HCC-2998 colon as test system: COc1cc(/C=C/C(=O)c2c(-c3ccc(Cl)cc3)nc3sc(C)nn23)cc(OC)c1OC
Result: > 100 µM

Q: Fill in the recorded TGI for this compound, with HCC-2998 colon as test system: CS(=O)(=O)Nc1ccc(Nc2c3ccccc3nc3cc(Cl)ccc23)cc1
Result: 22.9 µM

Q: Fill in the recorded TGI for this compound, with HCC-2998 colon as test system: C/C(=C\CNc1ncnc2c1ncn2CCC#N)CO
Result: > 100 µM

Q: Fill in the recorded TGI for this compound, with HCC-2998 colon as test system: O=C(c1ccccc1)c1ccc(N2C(=O)C3C4c5ccccc5C(/C=C/C(=O)c5ccccn5)(c5ccccc54)C3C2=O)cc1 (stereo not drawn)
Result: 3.34 µM

Q: Fill in the recorded TGI for this compound, with HCC-2998 colon as test system: COC(=O)/C(=C/c1ccc(OC)cc1)c1cc(OC)c(OC)c(OC)c1
Result: > 59 µM

Q: Fill in the recorded TGI for this compound, with HCC-2998 colon as test system: COc1ccc(NC(=S)Nc2cccc(C)n2)cc1
Result: > 100 µM

Q: Fill in the recorded TGI for this compound, with HCC-2998 colon as test system: Oc1[nH]c2ccccc2c1N=Nc1nc(-c2ccccc2)cs1
Result: > 100 µM

Q: Fill in the recorded TGI for this compound, with HCC-2998 colon as test system: COc1c(-c2nc3nc(N4CCN(C)CC4)ccc3[nH]2)cc(OC)c2c1nc(CCl)n2C
Result: 31.2 µM

Q: Fill in the recorded TGI for this compound, with HCC-2998 colon as test system: COc1cccc(OC)c1/C=N\N1C(=O)c2ccccc2C1=O
Result: 91.9 µM
